Biological target: Nav1.1 R1648H (Homo sapiens, UniProt P35498, R1648H)
Construct: expressed in transfected cells; host or cells: tsA201 cells (named for WT; same transient transfection method for mutants)
Experiment: Whole-cell voltage-clamp of mutant Nav1.1 R1648H (GEFS+)
Format: cell-based
Details: pulse 300 of 10 Hz train, read-out: Use-Dependent Block of Peak Current IC50
OBSERVABLE: IC50

[in] Need IC50 of COc1ccccc1OCC(O)CN1CCN(CC(=O)Nc2c(C)cccc2C)CC1 (racemic) [Ranolazine] , thanks.
[out] 138 µM

###

Assay: Brain penetration in rats after continuous intravenous infusion (LC-MS/MS)
Assay type: in vivo, Sprague Dawley rats
Conditions: male, Sprague Dawley, rat, plasma, iv, 85.5 μg/kg/min, rat; i.v. infusion 85.5 μg/kg/min; 1 h; read-out: Plasma
OBSERVABLE: concentration at 1 h (ng/mL)
Numbers only, in ng/mL.

[in] Need concentration at 1 h of COc1ccccc1OCC(O)CN1CCN(CC(=O)Nc2c(C)cccc2C)CC1 (racemic) [Ranolazine] , thanks.
[out] 777
